For each entry below, report its 8OG:A repair function score value.
B1: library; numbered along this chain (parent)
chain: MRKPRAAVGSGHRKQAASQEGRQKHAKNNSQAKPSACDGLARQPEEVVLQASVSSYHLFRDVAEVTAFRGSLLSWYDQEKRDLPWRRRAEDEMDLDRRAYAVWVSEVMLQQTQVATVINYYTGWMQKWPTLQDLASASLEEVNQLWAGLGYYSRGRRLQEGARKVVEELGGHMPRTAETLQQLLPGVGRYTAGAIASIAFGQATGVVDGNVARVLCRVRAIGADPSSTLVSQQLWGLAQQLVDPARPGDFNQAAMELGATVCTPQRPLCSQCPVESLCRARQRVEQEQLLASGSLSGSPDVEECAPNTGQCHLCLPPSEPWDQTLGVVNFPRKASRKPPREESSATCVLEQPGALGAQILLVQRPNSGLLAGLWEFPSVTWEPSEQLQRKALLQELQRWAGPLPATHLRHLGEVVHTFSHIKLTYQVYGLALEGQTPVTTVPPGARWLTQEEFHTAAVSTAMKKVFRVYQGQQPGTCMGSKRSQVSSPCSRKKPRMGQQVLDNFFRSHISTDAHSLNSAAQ

Variants of: B1
methodDescription: 8OG:A repair function score (normalized; synonymous = 0, nonsense = -1) (normalized log-likelihood score); higher = more repair activity (WT-like);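 also: cells sorted at 72 h after reporter transfection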
testParameters: with 8OG:A DNA repair reporter (GFP) in HEK-293 MUTYH KO cells

Q. I am curious: what 8OG:A repair function score value has been reported for `Q498E` ?
A. 0.0145

Q. I am curious: what 8OG:A repair function score value has been reported for `L237D` ?
A. -0.692

Q. I am curious: what 8OG:A repair function score value has been reported for `L325N` ?
A. -0.136

Q. I am curious: what 8OG:A repair function score value has been reported for `S490H` ?
A. -0.00447

Q. I am curious: what 8OG:A repair function score value has been reported for `G170C` ?
A. -0.00944

Q. I am curious: what 8OG:A repair function score value has been reported for `P84A` ?
A. -0.138

Q. I am curious: what 8OG:A repair function score value has been reported for `D300F` ?
A. -0.255

Q. I am curious: what 8OG:A repair function score value has been reported for `L139T` ?
A. 0.00391

Q. I am curious: what 8OG:A repair function score value has been reported for `Q144N` ?
A. -0.299

Q. I am curious: what 8OG:A repair function score value has been reported for `S74R` ?
A. 0.00425

Q. I am curious: what 8OG:A repair function score value has been reported for `V348R` ?
A. -1.43

Q. I am curious: what 8OG:A repair function score value has been reported for `Q499K` ?
A. -0.00715

Q. I am curious: what 8OG:A repair function score value has been reported for `T130H` ?
A. -0.115

Q. I am curious: what 8OG:A repair function score value has been reported for `L169Y` ?
A. -0.104

Q. I am curious: what 8OG:A repair function score value has been reported for `T511A` ?
A. -0.038

Q. I am curious: what 8OG:A repair function score value has been reported for `Q470G` ?
A. -0.105

Q. I am curious: what 8OG:A repair function score value has been reported for `Q473I` ?
A. -0.0484

Q. I am curious: what 8OG:A repair function score value has been reported for `S136V` ?
A. 0.077

Q. I am curious: what 8OG:A repair function score value has been reported for `M478C` ?
A. 0.0262

Q. I am curious: what 8OG:A repair function score value has been reported for `E140Q` ?
A. -0.159

Q. I am curious: what 8OG:A repair function score value has been reported for `R340G` ?
A. -0.129

Q. I am curious: what 8OG:A repair function score value has been reported for `P437S` ?
A. -0.0348

Q. I am curious: what 8OG:A repair function score value has been reported for `T204S` ?
A. -0.127

Q. I am curious: what 8OG:A repair function score value has been reported for `E275Y` ?
A. -0.0195

Q. I am curious: what 8OG:A repair function score value has been reported for `K80F` ?
A. -0.364

Q. I am curious: what 8OG:A repair function score value has been reported for `T179M` ?
A. 0.0538

Q. I am curious: what 8OG:A repair function score value has been reported for `L184S` ?
A. -0.911

Q. I am curious: what 8OG:A repair function score value has been reported for `Q271A` ?
A. 0.0211

Q. I am curious: what 8OG:A repair function score value has been reported for `Y121N` ?
A. -3.31

Q. I am curious: what 8OG:A repair function score value has been reported for `V441Y` ?
A. -0.0452

Q. I am curious: what 8OG:A repair function score value has been reported for `L83H` ?
A. -0.597

Q. I am curious: what 8OG:A repair function score value has been reported for `T449W` ?
A. -0.634

Q. I am curious: what 8OG:A repair function score value has been reported for `E92Q` ?
A. -0.0495

Q. I am curious: what 8OG:A repair function score value has been reported for `L134N` ?
A. -0.686

Q. I am curious: what 8OG:A repair function score value has been reported for `I221N` ?
A. -0.933

Q. I am curious: what 8OG:A repair function score value has been reported for `G309H` ?
A. 0.0104

Q. I am curious: what 8OG:A repair function score value has been reported for `R213P` ?
A. -1.03

Q. I am curious: what 8OG:A repair function score value has been reported for `K464V` ?
A. -0.276

Q. I am curious: what 8OG:A repair function score value has been reported for `Q521T` ?
A. -0.0167

Q. I am curious: what 8OG:A repair function score value has been reported for `E46M` ?
A. -0.119

Q. I am curious: what 8OG:A repair function score value has been reported for `R213M` ?
A. -1.04

Q. I am curious: what 8OG:A repair function score value has been reported for `S298G` ?
A. 0.0202

Q. I am curious: what 8OG:A repair function score value has been reported for `S55D` ?
A. 0.00222

Q. I am curious: what 8OG:A repair function score value has been reported for `R332Y` ?
A. -0.166

Q. I am curious: what 8OG:A repair function score value has been reported for `G186C` ?
A. -0.439

Q. I am curious: what 8OG:A repair function score value has been reported for `W235T` ?
A. -0.416

Q. I am curious: what 8OG:A repair function score value has been reported for `D133A` ?
A. -0.000201

Q. I am curious: what 8OG:A repair function score value has been reported for `N503D` ?
A. -0.0599

Q. I am curious: what 8OG:A repair function score value has been reported for `G148I` ?
A. -1.27

Q. I am curious: what 8OG:A repair function score value has been reported for `Q181M` ?
A. -0.0648

Q. I am curious: what 8OG:A repair function score value has been reported for `S55H` ?
A. -0.00673

Q. I am curious: what 8OG:A repair function score value has been reported for `I359N` ?
A. -0.425

Q. I am curious: what 8OG:A repair function score value has been reported for `W374N` ?
A. -0.645

Q. I am curious: what 8OG:A repair function score value has been reported for `L134I` ?
A. -0.101

Q. I am curious: what 8OG:A repair function score value has been reported for `I195F` ?
A. -1.08

Q. I am curious: what 8OG:A repair function score value has been reported for `W128Y` ?
A. -0.0875

Q. I am curious: what 8OG:A repair function score value has been reported for `W374C` ?
A. -0.633

Q. I am curious: what 8OG:A repair function score value has been reported for `H508S` ?
A. -0.00585

Q. I am curious: what 8OG:A repair function score value has been reported for `H454L` ?
A. -0.234

Q. I am curious: what 8OG:A repair function score value has been reported for `Q43G` ?
A. -0.0204

Q. I am curious: what 8OG:A repair function score value has been reported for `I359C` ?
A. -0.249

Q. I am curious: what 8OG:A repair function score value has been reported for `N517C` ?
A. -0.0105

Q. I am curious: what 8OG:A repair function score value has been reported for `V274P` ?
A. -1.23

Q. I am curious: what 8OG:A repair function score value has been reported for `Y428Q` ?
A. -1.2

Q. I am curious: what 8OG:A repair function score value has been reported for `C311N` ?
A. -0.628

Q. I am curious: what 8OG:A repair function score value has been reported for `C489R` ?
A. -0.0027

Q. I am curious: what 8OG:A repair function score value has been reported for `V415N` ?
A. -0.11

Q. I am curious: what 8OG:A repair function score value has been reported for `E275H` ?
A. 0.015

Q. I am curious: what 8OG:A repair function score value has been reported for `Y469R` ?
A. -0.195

Q. I am curious: what 8OG:A repair function score value has been reported for `R60V` ?
A. 0.00595

Q. I am curious: what 8OG:A repair function score value has been reported for `L134A` ?
A. -0.0633

Q. I am curious: what 8OG:A repair function score value has been reported for `S105W` ?
A. -0.677

Q. I am curious: what 8OG:A repair function score value has been reported for `T228E` ?
A. 0.0521

Q. I am curious: what 8OG:A repair function score value has been reported for `R217H` ?
A. -0.835

Q. I am curious: what 8OG:A repair function score value has been reported for `P306I` ?
A. -0.0314

Q. I am curious: what 8OG:A repair function score value has been reported for `R69E` ?
A. -3.19

Q. I am curious: what 8OG:A repair function score value has been reported for `V274N` ?
A. -0.714

Q. I am curious: what 8OG:A repair function score value has been reported for `E64N` ?
A. -0.0585

Q. I am curious: what 8OG:A repair function score value has been reported for `Q132E` ?
A. -0.0366

Q. I am curious: what 8OG:A repair function score value has been reported for `P474F` ?
A. 0.0108

Q. I am curious: what 8OG:A repair function score value has been reported for `R246V` ?
A. -0.732

Q. I am curious: what 8OG:A repair function score value has been reported for `R409N` ?
A. -0.0513

Q. I am curious: what 8OG:A repair function score value has been reported for `T122W` ?
A. -0.16

Q. I am curious: what 8OG:A repair function score value has been reported for `W146N` ?
A. -0.671

Q. I am curious: what 8OG:A repair function score value has been reported for `F330D` ?
A. -1.15

Q. I am curious: what 8OG:A repair function score value has been reported for `G293Q` ?
A. -0.00725

Q. I am curious: what 8OG:A repair function score value has been reported for `R189L` ?
A. -0.316

Q. I am curious: what 8OG:A repair function score value has been reported for `V468Q` ?
A. -0.0492

Q. I am curious: what 8OG:A repair function score value has been reported for `F200T` ?
A. -0.739

Q. I am curious: what 8OG:A repair function score value has been reported for `E168G` ?
A. -0.24

Q. I am curious: what 8OG:A repair function score value has been reported for `L40V` ?
A. 0.0896

// provenance: the supplement of paper PMC11908140
